Tested on: L-1236 (Hodgkin's Lymphoma);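 also: after 72 h of two-drug dosing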
Assay explanation: Bliss excess, mean over the matrix (fraction); higher = more synergy
Reported Bliss excess values for a set of molecules
Observed property: Bliss excess

| Molecule | Value |
| --- | --- |
| CN(CCO)CC[C@H](CSc1ccccc1)Nc1ccc(S(=O)(=O)NC(=O)c2ccc(N3CCC([C@@H](O)c4ccccc4-c4ccc(Cl)cc4)CC3)cc2)cc1S(=O)(=O)C(F)(F)F [AZD4320] + C[C@@H](Nc1cc(F)cc(F)c1)c1cc(C(=O)N(C)C)cc2c(=O)cc(N3CCOCC3)oc12 [AZD8186] (first compound max 1 µM, 7x7, partner max 3 µM) | 0.0082 |
| C[C@@H]1COCCN1c1cc(C2([S@](C)(=N)=O)CC2)nc(-c2ccnc3[nH]ccc23)n1 [AZD6738] + O=C(c1cc(Cc2n[nH]c(=O)c3ccccc23)ccc1F)N1CCN(C(=O)C2CC2)CC1 [Olaparib] (first compound max 10 µM, 7x7, partner max 10 µM) | -0.0033 |
| Cc1nc(-c2cn3c(n2)-c2ccc(-c4cnn(C(C)(C)C(N)=O)c4)cc2OCC3)n(C(C)C)n1 [Taselisib] + O=C(Nc1ccc2[nH]nc(-c3ccncc3)c2c1)[C@@H]1CCN(CC(=O)N2CCN(c3ccc(-c4ncccn4)cc3)CC2)C1 [SCH772984] (first compound max 10 µM, 7x7, partner max 5 µM) | 0.0543 |
| CC1(C)CCC(CN2CCN(c3ccc(C(=O)NS(=O)(=O)c4ccc(NCC5CCOCC5)c([N+](=O)[O-])c4)c(Oc4cnc5[nH]ccc5c4)c3)CC2)=C(c2ccc(Cl)cc2)C1 [Venetoclax] + Cc1cc2ncnn2cc1Nc1ncc2c(n1)n(C1CCOCC1)c(=O)n2C [AZD7648] (first compound max 1 µM, 7x7, partner max 10 µM) | -0.0274 |
| NC1(C(=O)N[C@@H](CCO)c2ccc(Cl)cc2)CCN(c2ncnc3[nH]ccc23)CC1 [Capivasertib] + Cn1cnc2c(F)c(Nc3ccc(Br)cc3Cl)c(C(=O)NOCCO)cc21 [Selumetinib] (first compound max 10 µM, 7x7, partner max 10 µM) | 0.0433 |
| Cc1cc2ncnn2cc1Nc1ncc2c(n1)n(C1CCOCC1)c(=O)n2C [AZD7648] + COc1cc([C@@H]2c3cc4c(cc3[C@@H](O[C@@H]3O[C@@H]5CO[C@@H](C)O[C@H]5[C@H](O)[C@H]3O)[C@H]3COC(=O)[C@H]23)OCO4)cc(OC)c1O [Etoposide] (first compound max 10 µM, 7x7, partner max 10 µM) | 0.0004 |
| CN(C)CCCOc1ccc(-c2ccc3ncc4c(c3c2)n(C2CCOCC2)c(=O)n4C)cn1 [AZD0156] + O=C(c1cc(Cc2n[nH]c(=O)c3ccccc23)ccc1F)N1CCN(C(=O)C2CC2)CC1 [Olaparib] (first compound max 3 µM, partner max 3 µM) | -0.0602 |

###

Test system: MKN45 (Gastric Carcinoma)
Assay explanation: combination Emax (second highest fraction inhibited in the dose matrix, 72 h); higher = more inhibition; extreme values may be limits of the assay
In this section, each of the compounds is paired with its reported combination Emax.

| Compound | combination Emax |
| --- | --- |
| NC1(C(=O)N[C@@H](CCO)c2ccc(Cl)cc2)CCN(c2ncnc3[nH]ccc23)CC1 [Capivasertib] + CC(C)n1c(=O)n(C)c2cnc3cc(F)c(-c4ccc(OCCCN5CCCCC5)nc4)cc3c21 [AZD1390] (first compound max 10 µM, 7x7, partner max 0.3 µM) | 0.432 |
| CN(CCO)CC[C@H](CSc1ccccc1)Nc1ccc(S(=O)(=O)NC(=O)c2ccc(N3CCC([C@@H](O)c4ccccc4-c4ccc(Cl)cc4)CC3)cc2)cc1S(=O)(=O)C(F)(F)F [AZD4320] + CS(=O)(=O)CCNCc1ccc(-c2ccc3ncnc(Nc4ccc(OCc5cccc(F)c5)c(Cl)c4)c3c2)o1 [Lapatinib] (first compound max 1 µM, 7x7, partner max 10 µM) | 0.2 |
| CC(=O)Nc1cccc(-n2c(=O)n(C3CC3)c(=O)c3c(Nc4ccc(I)cc4F)n(C)c(=O)c(C)c32)c1 [Trametinib] + Cc1nc(-c2cn3c(n2)-c2ccc(-c4cnn(C(C)(C)C(N)=O)c4)cc2OCC3)n(C(C)C)n1 [Taselisib] (first compound max 1 µM, 7x7, partner max 10 µM) | 0.799 |
| O=C(c1cc(Cc2n[nH]c(=O)c3ccccc23)ccc1F)N1CCN(C(=O)C2CC2)CC1 [Olaparib] + COc1nnc2ccc(N3CCC(c4ccc(OCCN5CCN(C)C(=O)[C@H]5C)cc4)CC3)nn12 [AZD5153] (first compound max 10 µM, 7x7, partner max 1 µM) | 0.409 |
| CN(CCO)CC[C@H](CSc1ccccc1)Nc1ccc(S(=O)(=O)NC(=O)c2ccc(N3CCC([C@@H](O)c4ccccc4-c4ccc(Cl)cc4)CC3)cc2)cc1S(=O)(=O)C(F)(F)F [AZD4320] + CC(=O)O[C@H]1C(=O)[C@@]2(C)[C@H]([C@H](OC(=O)c3ccccc3)[C@]3(O)C[C@H](OC(=O)[C@H](O)[C@@H](NC(=O)c4ccccc4)c4ccccc4)C(C)=C1C3(C)C)[C@]1(OC(C)=O)CO[C@@H]1C[C@@H]2O [Paclitaxel] (first compound max 1 µM, 7x7, partner max 3 µM) | 0.751 |
| C[C@@H](c1ccc2nccn2c1)n1nnc2ncc(-c3cnn(C)c3)nc21 [Savolitinib] + CC1(C)CCC(CN2CCN(c3ccc(C(=O)NS(=O)(=O)c4ccc(NCC5CCOCC5)c([N+](=O)[O-])c4)c(Oc4cnc5[nH]ccc5c4)c3)CC2)=C(c2ccc(Cl)cc2)C1 [Venetoclax] (first compound max 1 µM, 7x7, partner max 1 µM) | 0.831 |
